Target: Sentrin-specific protease 1 (Homo sapiens, UniProt Q9P0U3)
Sequence (Q9P0U3 whole entry): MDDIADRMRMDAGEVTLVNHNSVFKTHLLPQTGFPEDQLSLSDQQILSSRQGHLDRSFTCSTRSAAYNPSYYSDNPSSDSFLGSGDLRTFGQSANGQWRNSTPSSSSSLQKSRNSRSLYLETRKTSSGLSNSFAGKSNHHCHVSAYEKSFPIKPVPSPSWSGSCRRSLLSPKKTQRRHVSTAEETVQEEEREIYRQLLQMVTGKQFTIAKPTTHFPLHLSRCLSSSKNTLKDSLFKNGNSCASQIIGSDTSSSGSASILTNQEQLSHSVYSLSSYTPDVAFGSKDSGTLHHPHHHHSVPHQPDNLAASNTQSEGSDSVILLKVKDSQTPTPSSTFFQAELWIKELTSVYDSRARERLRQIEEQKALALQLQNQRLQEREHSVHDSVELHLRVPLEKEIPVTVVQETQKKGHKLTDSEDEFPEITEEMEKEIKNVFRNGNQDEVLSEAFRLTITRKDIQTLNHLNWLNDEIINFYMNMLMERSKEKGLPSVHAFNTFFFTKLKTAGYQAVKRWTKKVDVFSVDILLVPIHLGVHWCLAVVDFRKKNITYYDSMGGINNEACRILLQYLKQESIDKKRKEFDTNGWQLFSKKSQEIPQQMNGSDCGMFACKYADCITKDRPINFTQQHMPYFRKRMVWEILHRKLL
Reported values of IC50 for individual entries
Report only the number, with the unit µM understood.

compound	IC50 / µM
O=C(O)c1cccc(C(=O)NCc2ccc(C(=O)NNC(=O)[C@H]3O[C@@H]3C(=O)N(Cc3cccc4ccccc34)Cc3cccc4ccccc34)cc2)c1	7.1
C[C@H](O)C(NC(=O)[C@H](CCC(N)=O)NC(=O)Cc1ccc(O)c([N+](=O)[O-])c1)C(=O)NCC(=O)NCC(=O)COC(=O)c1c2ccccc2cc2ccccc12 (stereo not given in full)	3.6

For the next question, use this compound.
Lab entry: Sentrin-specific protease 1 (Homo sapiens, UniProt Q9P0U3) assay, compound NC(=O)[C@H](CC(=O)O)NC(=O)c1ccc(C(=O)NNC(=O)[C@H]2O[C@@H]2C(=O)N(Cc2cccc3ccccc23)Cc2cccc3ccccc23)cc1 , IC50 = 22.4

###

Molecular target: Sentrin-specific protease 2 (Homo sapiens)
Sequence (Q9HC62 whole entry): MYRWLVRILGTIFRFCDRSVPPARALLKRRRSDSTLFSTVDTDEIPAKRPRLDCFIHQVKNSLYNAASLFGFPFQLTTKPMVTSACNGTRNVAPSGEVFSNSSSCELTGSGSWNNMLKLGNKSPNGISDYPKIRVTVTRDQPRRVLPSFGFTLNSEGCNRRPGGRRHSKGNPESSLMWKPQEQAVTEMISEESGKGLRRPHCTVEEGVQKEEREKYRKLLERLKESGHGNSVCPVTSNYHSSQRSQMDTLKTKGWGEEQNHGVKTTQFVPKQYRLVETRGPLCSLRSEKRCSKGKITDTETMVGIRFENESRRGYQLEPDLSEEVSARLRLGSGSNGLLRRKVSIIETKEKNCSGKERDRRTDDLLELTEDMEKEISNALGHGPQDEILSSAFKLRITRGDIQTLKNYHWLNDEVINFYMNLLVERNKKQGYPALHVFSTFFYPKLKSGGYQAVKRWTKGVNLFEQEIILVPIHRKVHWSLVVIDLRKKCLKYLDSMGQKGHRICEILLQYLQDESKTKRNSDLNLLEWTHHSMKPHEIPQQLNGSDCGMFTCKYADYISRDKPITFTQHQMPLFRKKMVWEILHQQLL
*1 amine or outer side, *2 acyl side, *3 side chain or, on linkers, in order; H or OH if unused. Where a SMILES comes first, the peptide text is derived from it. [ ]: non-standard residue; d: D form. The star is where a group is joined. ξ: configuration not given here. ξThr(3S) = C[C@H](O[*:3])C(N[*:1])C(=O)[*:2]; X2 = O=C(CN*)COC(=O)c1c2ccccc2cc2ccccc12; X1 = O=C(Cc1ccc(O)c([N+](=O)[O-])c1)*
metric: IC50 (µM)
Report only the number, with the unit µM understood.

compound	IC50 [µM]
C[C@H](O)C(NC(=O)[C@H](CCC(N)=O)NC(=O)Cc1ccc(O)c([N+](=O)[O-])c1)C(=O)NCC(=O)NCC(=O)COC(=O)c1c2ccccc2cc2ccccc12 (stereo partly specified) [VEA-499]	0.25
C[C@H](O)C(NC(=O)[C@H](CCC(N)=O)NC(=O)[C@H](CCC(N)=O)NC(=O)Cc1ccc(O)c([N+](=O)[O-])c1)C(=O)NCC(=O)NCC(=O)COC(=O)c1c2ccccc2cc2ccccc12 (stereo partly drawn) [VEA-500] (X1-QQ[ξThr(3S)]G-X2)	0.86
CC(C)C[C@H](NC(=O)Cc1ccc(O)c([N+](=O)[O-])c1)C(=O)N[C@@H](CCCNC(=N)N)C(=O)NCC(=O)NCC(=O)COC(=O)c1c2ccccc2cc2ccccc12 [VEA-561]	5.7
O=C(O)CN(NC(=O)c1ccc(CNC(=O)c2cccc(C(=O)O)c2)cc1)C(=O)[C@H]1O[C@@H]1C(=O)N(Cc1cccc2ccccc12)Cc1cccc2ccccc12 [JCP-666]	7
NC(=O)CNC(=O)c1ccc(C(=O)NNC(=O)[C@H]2O[C@@H]2C(=O)N(Cc2cccc3ccccc23)Cc2cccc3ccccc23)cc1 [VEA-417]	13.1

For the next question, use this compound.
Sample O=C(O)c1cccc(C(=O)NCc2ccc(C(=O)NNC(=O)[C@H]3O[C@@H]3C(=O)N(Cc3cccc4ccccc34)Cc3cccc4ccccc34)cc2)c1 [VEA-260] ; IC50 observed: 3.7

Just for reference, BindingDB's records for doi:10.1016/j.chembiol.2011.05.008 is where these values come from.
